The measurements presented in this section are drawn from ChEMBL document CHEMBL3433997.

Give measured inhibition for each item. Keep answers brief.
target: Hexose transporter 1 (Plasmodium falciparum); test: ST_JUDE_LEISH: Cytotoxicity at 2uM final concentration against transgenic Leishmania Mexicana promastigotes LmPfHT that are glucose transport deficient and complemented with the Plasmodium falciparum hexose transporter. Activity is measured by DNA content using SYBR green in vitro; format: functional
Answer with a number only, understood to be in %.

Reported inhibition for COc1ccc(CN2CCN(C(=O)c3cccs3)CC2)c(O)c1 : what is it?
11.1

Reported inhibition for Cc1cccc2nc(-c3cccc(-c4cccc(NC(=O)C(C)CN(C)C)c4)c3)[nH]c12 (stereo not given) : what is it?
1.39

Reported inhibition for CCCCCCCCc1c(C)[nH]c(C)c(Cl)c1=O : what is it?
0.28

Reported inhibition for O=C(Nc1ccc(OC2CCN(Cc3ccccc3)C2)c(Cl)c1)c1ccc(F)cc1 (stereo not given) : what is it?
1.99

Reported inhibition for COc1ccc2cc(CNCCCCCCNCc3ccc4cc(OC)ccc4c3)ccc2c1 : what is it?
107

Reported inhibition for Cc1ccc(NS(=O)(=O)c2ccc(C(C)N3CCC(N4CCCCC4)CC3)cc2)cc1C (stereo not given) : what is it?
-0.86

Reported inhibition for C=CC(=O)Nc1ccc(Cl)cc1C(O)c1ccccc1 (stereo not given) : what is it?
2.07

Reported inhibition for CCOc1cc(C)ccc1N(C1CCN(CCCCNC(=O)c2ccc(-c3ccc(C(F)(F)F)cc3)cc2)CC1)S(=O)(=O)c1ccccc1 : what is it?
1.25

Reported inhibition for FC(F)(F)COc1ccc2ccccc2c1CCNCCCCNCCc1c(OCC(F)(F)F)ccc2ccccc12 : what is it?
103

Reported inhibition for CC(=O)Nc1ccc(C(=O)Nc2ccc(-c3cccc(-c4nc5cccc(C)c5[nH]4)c3)cc2)cn1 : what is it?
-0.04
